Form field: growth, % of control at 10 µM (one value per entry).
experiment: Growth inhibition of human SKOV3 cells at 10 uM after 48 hrs by sulforhodamine B assay; type: functional; settings: SK-OV-3, 48 h, values are per cent of control
The response must be a number in % with no trailing unit.

Observe how each entry below is paired with its result.
- MOL_SMILES: "COc1ccc(/C(C#N)=C/c2ccc3c(c2)OCCO3)cc1OC"
  MEASURED_QUANTITY: "growth, % of control at 10 µM"
  RESULT_VALUE: 20
- MOL_SMILES: "COc1ccc(/C=C(\\C#N)c2ccc3c(c2)OCO3)cn1"
  MEASURED_QUANTITY: "growth, % of control at 10 µM"
  RESULT_VALUE: 83.1

Prompt: Please give the measured growth, % of control at 10 µM for this compound: COc1ccc(/C=C(\C#N)c2ccc3c(c2)OCO3)c(OC)c1
Response: 33.2

Prompt: Please give the measured growth, % of control at 10 µM for this compound: N#C/C(=C\c1cccnc1Cl)c1ccc2c(c1)OCO2
Response: 103

Prompt: Please give the measured growth, % of control at 10 µM for this compound: N#C/C(=C\c1ccc(Cl)cc1Cl)c1ccc2c(c1)OCO2
Response: 97.3

Prompt: Please give the measured growth, % of control at 10 µM for this compound: COc1ccc(/C(C#N)=C/c2ccc3c(c2)OCO3)cc1
Response: 88.6

Prompt: Please give the measured growth, % of control at 10 µM for this compound: COc1ccc(/C=C(\C#N)c2ccc3c(c2)OCO3)cc1
Response: 28.8
